All values here come from PubChem BioAssay AID1963841.

System: 439559-082-T-J2-PDC spheroid viability
Experiment: Anticancer human tumor 439559-082-T-J2-PDC patient-derived colon adenocarcinoma cell line growth inhibition [POLQ]
Details: curve of first compound; second compound 3.16 µM; spheroids with HUVEC and MSC
Each entry below lists one item and its recorded IC50 value.
Observed Property: IC50 (nM)

- Compound: "C=CC(=O)N1CCN(c2nc(=O)n(-c3c(C)ccnc3C(C)C)c3nc(-c4c(O)cccc4F)c(F)cc23)C(C)C1 (stereo not given) + Nc1ccc(C#CCN(C(=O)Cc2ncc(C(F)(F)F)cc2C(F)(F)F)c2ccc(F)cc2)nn1"
  Censor Symbol: ">"
  Test Value: 10000
- Compound: "CC1COCCN1c1cc(C2(O)CC3CCC(C2)O3)c2cnn(-c3ccn[nH]3)c2n1 (stereo not given) + Cc1cccc(N(C)C(=O)C2C(O)CCN2c2nc(C)cc(C(F)(F)F)c2C#N)c1"
  Censor Symbol: "="
  Test Value: 2870
- Compound: "Nc1ccn(C2OC(CO)C(O)C2(F)F)c(=O)n1 (stereo not given) + COC1C(OC(N)=O)C(O)C(Oc2ccc3c(O)c(NC(=O)c4ccc(O)c(CC=C(C)C)c4)c(=O)oc3c2C)OC1(C)C"
  Censor Symbol: "="
  Test Value: 450
- Compound: "O=c1[nH]cc(F)c(=O)[nH]1 + Nc1ccc(C#CCN(C(=O)Cc2ncc(C(F)(F)F)cc2C(F)(F)F)c2ccc(F)cc2)nn1"
  Censor Symbol: ">"
  Test Value: 10000
- Compound: "C=CC(=O)N1CCN(c2nc(=O)n(-c3c(C)ccnc3C(C)C)c3nc(-c4c(O)cccc4F)c(F)cc23)C(C)C1 (stereo not given) + COC1C(OC(N)=O)C(O)C(Oc2ccc3c(O)c(NC(=O)c4ccc(O)c(CC=C(C)C)c4)c(=O)oc3c2C)OC1(C)C"
  Censor Symbol: ">"
  Test Value: 10000

----------
System: 439559-082-T-J2-PDC spheroid viability
Assay: Anticancer human tumor 439559-082-T-J2-PDC cell line growth inhibition [POLQ];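 also: spheroids exposed to compounds for seven days before readout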;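 as to viability, T/C: 100% = DMSO vehicle control viability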
Settings: second compound 1 µM; first compound 1 µM; stronger effect = lower value; spheroids with HUVEC and MSC
Each entry below lists one item and its recorded viability, T/C value.

- Compound: "C#Cc1c(F)ccc2cc(O)cc(-c3ncc4c(N5CC6CCC(C5)N6)nc(OCC56CCCN5CC(F)C6)nc4c3F)c12 (stereo unspecified) + Nc1ccc(C#CCN(C(=O)Cc2ncc(C(F)(F)F)cc2C(F)(F)F)c2ccc(F)cc2)nn1"
  viability, T/C (%): 60.9
- Compound: "COc1cc2cc(C(=O)CCC(=O)O)sc2cc1OC + Nc1ccc(C#CCN(C(=O)Cc2ncc(C(F)(F)F)cc2C(F)(F)F)c2ccc(F)cc2)nn1"
  viability, T/C (%): 93.6
- Compound: "CCCS(=O)(=O)Nc1ccc(F)c(C(=O)c2c[nH]c3ncc(-c4ccc(Cl)cc4)cc23)c1F + Nc1ccc(C#CCN(C(=O)Cc2ncc(C(F)(F)F)cc2C(F)(F)F)c2ccc(F)cc2)nn1"
  viability, T/C (%): 107
- Compound: "CC1COCCN1c1cc(-c2ccnn2C)c2ccnc(-c3ccn[nH]3)c2n1 (stereo unspecified) + COC1C(OC(N)=O)C(O)C(Oc2ccc3c(O)c(NC(=O)c4ccc(O)c(CC=C(C)C)c4)c(=O)oc3c2C)OC1(C)C"
  viability, T/C (%): 41.9
- Compound: "CC1COCCN1c1cc(C2(O)CC3CCC(C2)O3)c2cnn(-c3ccn[nH]3)c2n1 (stereo unspecified) + COC1C(OC(N)=O)C(O)C(Oc2ccc3c(O)c(NC(=O)c4ccc(O)c(CC=C(C)C)c4)c(=O)oc3c2C)OC1(C)C"
  viability, T/C (%): 56.1
- Compound: "COc1cc(C2c3cc4c(cc3C(OC3OC5COC(C)OC5C(O)C3O)C3COC(=O)C23)OCO4)cc(OC)c1O (stereo unspecified) + Nc1ccc(C#CCN(C(=O)Cc2ncc(C(F)(F)F)cc2C(F)(F)F)c2ccc(F)cc2)nn1"
  viability, T/C (%): 91.5
- Compound: "CC1COCCN1c1cc(C2(O)CC3CCC(C2)O3)c2cnn(-c3ccn[nH]3)c2n1 (stereo unspecified) + Nc1ccc(C#CCN(C(=O)Cc2ncc(C(F)(F)F)cc2C(F)(F)F)c2ccc(F)cc2)nn1"
  viability, T/C (%): 66.7
- Compound: "COc1cccc2c1C(=O)c1c(O)c3c(c(O)c1C2=O)CC(O)(C(=O)CO)CC3OC1CC(N)C(O)C(C)O1 (stereo unspecified) + Cc1cccc(N(C)C(=O)C2C(O)CCN2c2nc(C)cc(C(F)(F)F)c2C#N)c1"
  viability, T/C (%): 70.1
- Compound: "O=c1[nH]cc(F)c(=O)[nH]1 + COC1C(OC(N)=O)C(O)C(Oc2ccc3c(O)c(NC(=O)c4ccc(O)c(CC=C(C)C)c4)c(=O)oc3c2C)OC1(C)C"
  viability, T/C (%): 75.5
- Compound: "CCc1cc2c(N3CCc4c(cc(Cn5ccnc5)cc4-c4cn(C)nc4C(F)(F)F)C3=O)ccnc2c(OC)n1 + Cc1cccc(N(C)C(=O)C2C(O)CCN2c2nc(C)cc(C(F)(F)F)c2C#N)c1"
  viability, T/C (%): 93.7
- Compound: "C=CC(=O)N1CCN(c2nc(=O)n(-c3c(C)ccnc3C(C)C)c3nc(-c4c(O)cccc4F)c(F)cc23)C(C)C1 (stereo unspecified) + COC1C(OC(N)=O)C(O)C(Oc2ccc3c(O)c(NC(=O)c4ccc(O)c(CC=C(C)C)c4)c(=O)oc3c2C)OC1(C)C"
  viability, T/C (%): 101
- Compound: "CNCc1ccc(-c2[nH]c3cc(F)cc4c3c2CCNC4=O)cc1 + Cc1cccc(N(C)C(=O)C2C(O)CCN2c2nc(C)cc(C(F)(F)F)c2C#N)c1"
  viability, T/C (%): 106
- Compound: "C=CC(=O)N1CCN(c2nc(=O)n(-c3c(C)ccnc3C(C)C)c3nc(-c4c(O)cccc4F)c(F)cc23)C(C)C1 (stereo unspecified) + Cc1cccc(N(C)C(=O)C2C(O)CCN2c2nc(C)cc(C(F)(F)F)c2C#N)c1"
  viability, T/C (%): 96.5
- Compound: "CC(C)n1c(=O)n(C)c2cnc3cc(F)c(-c4ccc(OCCCN5CCCCC5)nc4)cc3c21 + COC1C(OC(N)=O)C(O)C(Oc2ccc3c(O)c(NC(=O)c4ccc(O)c(CC=C(C)C)c4)c(=O)oc3c2C)OC1(C)C"
  viability, T/C (%): 109
- Compound: "O=C(c1cc(Cc2n[nH]c(=O)c3ccccc23)ccc1F)N1CCN(C(=O)C2CC2)CC1 + Cc1cccc(N(C)C(=O)C2C(O)CCN2c2nc(C)cc(C(F)(F)F)c2C#N)c1"
  viability, T/C (%): 103
- Compound: "CNCc1ccc(-c2[nH]c3cc(F)cc4c3c2CCNC4=O)cc1 + Nc1ccc(C#CCN(C(=O)Cc2ncc(C(F)(F)F)cc2C(F)(F)F)c2ccc(F)cc2)nn1"
  viability, T/C (%): 90.5
- Compound: "CCCS(=O)(=O)Nc1ccc(F)c(C(=O)c2c[nH]c3ncc(-c4ccc(Cl)cc4)cc23)c1F + Cc1cccc(N(C)C(=O)C2C(O)CCN2c2nc(C)cc(C(F)(F)F)c2C#N)c1"
  viability, T/C (%): 95.3
- Compound: "COc1cccc2c1C(=O)c1c(O)c3c(c(O)c1C2=O)CC(O)(C(=O)CO)CC3OC1CC(N)C(O)C(C)O1 (stereo unspecified) + Nc1ccc(C#CCN(C(=O)Cc2ncc(C(F)(F)F)cc2C(F)(F)F)c2ccc(F)cc2)nn1"
  viability, T/C (%): 64
- Compound: "COc1cc(C2c3cc4c(cc3C(OC3OC5COC(C)OC5C(O)C3O)C3COC(=O)C23)OCO4)cc(OC)c1O (stereo unspecified) + COC1C(OC(N)=O)C(O)C(Oc2ccc3c(O)c(NC(=O)c4ccc(O)c(CC=C(C)C)c4)c(=O)oc3c2C)OC1(C)C"
  viability, T/C (%): 100
- Compound: "O=C(Nc1ccc(O)c(NS(=O)(=O)c2ccc(F)cc2)c1)c1ccc(-c2ccccc2)cc1 + Cc1cccc(N(C)C(=O)C2C(O)CCN2c2nc(C)cc(C(F)(F)F)c2C#N)c1"
  viability, T/C (%): 97.7
- Compound: "CC1COCCN1c1cc(C2(S(C)(=N)=O)CC2)nc(-c2ccnc3[nH]ccc23)n1 (stereo unspecified) + Nc1ccc(C#CCN(C(=O)Cc2ncc(C(F)(F)F)cc2C(F)(F)F)c2ccc(F)cc2)nn1"
  viability, T/C (%): 96.4
